Where these numbers come from: ChEMBL document CHEMBL1125029

assay-system: Muscarinic acetylcholine receptor
test-description: Binding activity to the muscarinic acetylcholine receptor in rat cortex, assayed using [3H]PZ as a radioligand.
Assay type: tissue-based
value-kind: Ki (nM)

> print(dat)
                structure.notation                       assay.system  value.kind  reported.measurement
1  CC(=O)N1CCC[C@H]1C#CCN1CCCC1.Cl  Muscarinic acetylcholine receptor          Ki                  2060
2       O=CN1CCC[C@@H]1C#CCN1CCCC1  Muscarinic acetylcholine receptor          Ki                  1180
3  CCOC(=O)N1CCC[C@@H]1C#CCN1CCCC1  Muscarinic acetylcholine receptor          Ki                   190
4       CC(=O)N1CCC[C@H]1C#CCN(C)C  Muscarinic acetylcholine receptor          Ki                 40000

(I) CN(C)CC#C[C@H]1CCCN1C(=O)OC(C)(C)C
(II) CC(=O)N1CCC[C@@H]1C#CC[N+](C)(C)C
(III) Cl.O=C(N1CCC[C@H]1C#CCN1CCCC1)C(F)(F)F
(IV) CC(C)(C)OC(=O)N1CCC[C@H]1C#CCN1CCCC1
(V) CN(C)CC#C[C@H]1CCCN1.Cl.Cl
Ask | Rank descending by Ki. Enter labels, ranked according to the request.
Reply | V, I, III, II, IV
(V: 25200 nM, I: 5600 nM, III: 3100 nM, II: 1630 nM, IV: 70 nM)

(A) CS(=O)(=O)N1CCC[C@H]1C#CCN1CCCC1.Cl
(B) C(#C[C@@H]1CCCN1)CN1CCCC1.Cl.Cl
Ask | Higher Ki: A or B ? I would appreciate it if you answered with the label of your choice.
Reply | A
(A: 6050 nM, B: 2220 nM)

(1) COC(=O)N1CCC[C@H]1C#CCN1CCCC1
(2) CC(=O)N1CCC[C@@H]1C#CCN(C)C
Ask | Higher Ki: 1 or 2 ? I would appreciate it if you answered with the label of your choice.
Reply | 2

---

assay-system: Muscarinic acetylcholine receptor
test-description: Binding activity against Muscarinic acetylcholine receptor in rat cortex, using [3H]QNB as a radioligand.
Type: tissue-based
value-kind: Ki (µM)

> print(dat)
            structure.notation  value.kind  reported.measurement
1  CN(C)CC#C[C@@H]1CCCN1.Cl.Cl          Ki                   8.5
2    O=CN1CCC[C@H]1C#CCN1CCCC1          Ki                  4.59

(P) CC(=O)N1CCC[C@H]1C#CCN1CCCC1.Cl
(Q) C(#C[C@@H]1CCCN1)CN1CCCC1.Cl.Cl
(R) CC(=O)N1CCC[C@H]1C#CC[N+](C)(C)C
(S) CC(=O)N1CCC[C@H]1C#CCN(C)C
Ask | Rank descending by Ki. Enter labels, ranked according to the request.
Reply | S, R, P, Q

---

assay-system: Muscarinic acetylcholine receptor M1 (Rattus norvegicus)
test-description: Muscarinic 1 receptor agonistic activity as the selectivity ratio of Ki against [3H]-QNB to that of [3H]PZ
Type: functional
value-kind: Ratio

> print(dat)
                    structure.notation                              assay.system  value.kind  reported.measurement
1  CN(C)CC#C[C@@H]1CCCN1C(=O)OC(C)(C)C  Muscarinic acetylcholine receptor M1 (Rattus norvegicus)       Ratio                   1.5

(A) CC(C)(C)OC(=O)N1CCC[C@H]1C#CCN1CCCC1
(B) CN(C)CC#C[C@H]1CCCN1C(=O)OC(C)(C)C
(C) O=CN1CCC[C@H]1C#CCN1CCCC1
(D) COC(=O)N1CCC[C@H]1C#CCN1CCCC1
(E) CC(=O)N1CCC[C@@H]1C#CC[N+](C)(C)C
Ask | Rank descending by Ratio. Enter labels, ranked according to the request.
Reply | C, D, A, E, B
(C: 6.2, D: 3, A: 1.9, E: 1.3, B: 0.9)

(1) COC(=O)N1CCC[C@@H]1C#CCN1CCCC1
(2) CC(=O)N1CCC[C@H]1C#CC[N+](C)(C)C
Ask | // compare: 1 vs 2 , metric Ratio, want the smaller I would appreciate it if you answered with the label of your choice.
Reply | 2
